system: HepG2; assay: Anticancer activity against human HepG2 cells assessed as cell viability after 48 hrs by MTT microcultured tetrazolium assay; type: functional, cell-based; conditions: HepG2, 48 h
Each item that follows carries a reported pIC50.
Lab note: report pIC50 as minus log10 of the concentration in molar units, number only.

Inquiry: Quick check: pIC50 on HepG2, item COc1ccc2c(c1)CCC1=C2N=c2s/c(=C\c3c[nH]c4ccc(OC)cc34)c(=O)n2C1c1ccc(F)cc1 (configuration not stated) ?
Reply text: 4.06

Inquiry: Input COc1ccc2c(c1)CCC1=C2N=c2s/c(=C\c3c[nH]c4ccc(Br)cc34)c(=O)n2C1c1ccc(F)cc1 (configuration not stated)
Reply text: 4.66

Inquiry: Input COc1ccc2c(c1)CCC1=C2N=c2s/c(=C\c3c[nH]c4ccc(Br)cc34)c(=O)n2C1c1ccc(Cl)cc1 (configuration not stated)
Reply text: 4.94

Inquiry: Input COc1cccc2c1C(=O)c1c(O)c3c(c(O)c1C2=O)C[C@@](O)(C(=O)CO)C[C@@H]3O[C@H]1C[C@H](N)[C@H](O)[C@H](C)O1
Reply text: 5.96

Inquiry: Input COc1ccc2c(c1)CCC1=C2N=c2s/c(=C\c3c(C)[nH]c4ccccc34)c(=O)n2C1c1ccc(F)cc1 (configuration not stated)
Reply text: 4.13

Inquiry: Input COc1ccc(C2C3=C(N=c4s/c(=C\c5c[nH]c6ccccc56)c(=O)n42)c2ccc(OC)cc2CC3)cc1 (configuration not stated)
Reply text: 4.21
